experiment: Toxicity liver stage against HepG2, at 10uM; assay type: cell-based; design: test concentration 10 uM, cell line HepG2-A16-CD81EGFP; conditions: human, HepG2-A16-CD81EGFP cells; read-out: INHIBITION
# cytotoxicity at 10 µM annotations
Express the result in % but write the number alone.

>>> reported_measurement("COCCNc1ncc(-c2onc(C)c2C)c(-c2ccco2)n1")
5.92
>>> reported_measurement("CN(Cc1cc(-c2ccccc2)no1)C1CCCN(c2cccnn2)C1 (configuration not stated)")
-10.2
>>> reported_measurement("OC1(c2cn(C3CCN(C4CCSC4)CC3)nn2)CCCC1 (configuration not stated)")
2.13

GET /value?item= Cc1cc(Cl)ccc1NCc1ccc(C(=O)N(C)C)[nH]1 &field=cytotoxicity at 10 µM returns 7.31

GET /value?item= C=C(C)CN1CCN(Cc2cnc(-c3ccc(OC)cc3)nc2)CC1 &field=cytotoxicity at 10 µM returns -3.41

GET /value?item= CC(C)c1nc(S(=O)(=O)Nc2ccnn2C2CCCC2)c[nH]1 &field=cytotoxicity at 10 µM returns -3.36

GET /value?item= Cn1ccnc1CN1CCC2(CC1)CN(Cc1cccnc1)C(=O)CO2 &field=cytotoxicity at 10 µM returns 4

GET /value?item= CCOCc1nc(-c2ccc(F)cc2Cl)n(C)n1 &field=cytotoxicity at 10 µM returns -10.2

GET /value?item= COc1ccc(Br)cc1CCC(=O)N1CCSCC1 &field=cytotoxicity at 10 µM returns 5.48

GET /value?item= COc1ccc(F)c(CN2CCCC(O)(CNCc3ccoc3)C2=O)c1 (configuration not stated) &field=cytotoxicity at 10 µM returns 10.9

GET /value?item= Fc1cccc(OC2CCN(Cc3ncc[nH]3)CC2)c1 &field=cytotoxicity at 10 µM returns -31.2
